Reported kinact/KI values for the following compounds.
Target: UniProtKB P29466
Sequence (P29466 120-297 limits assumed): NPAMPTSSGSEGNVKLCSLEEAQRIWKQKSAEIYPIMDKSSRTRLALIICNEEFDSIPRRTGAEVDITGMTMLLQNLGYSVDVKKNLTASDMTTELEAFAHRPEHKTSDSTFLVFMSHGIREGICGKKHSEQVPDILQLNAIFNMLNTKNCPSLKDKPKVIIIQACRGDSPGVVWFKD
Sequence (P29466 317-404 limits assumed): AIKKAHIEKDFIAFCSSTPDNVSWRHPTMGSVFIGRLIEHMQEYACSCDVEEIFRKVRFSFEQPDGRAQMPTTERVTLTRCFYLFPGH
Experiment: enzyme assay, second order rates of inactivation of ICE
Type: biochemical
Conditions: in vitro; read-out: kobs/[I] (IL-1β protease inhibition, second order rate of inactivation)
Source text: Second order rates of inactivation were obtained by using the enzyme assay described in Dolle, R. E.; et al., J. Med Chem. (1994), 37, 563. […] In the case of these reversible inhibitors, the in vitro assay was modified to obtain the reversible Ki * as follows: […]

compound.structure	kinact/KI
Cc1nccn1Cc1ccc(C(=O)N[C@H]2CCC(=O)N3CCC[C@@H](C(=O)N[C@@H](CC(=O)O)C(=O)COC(=O)c4c(Cl)cccc4Cl)N3C2=O)cc1	> 10000 M⁻¹ s⁻¹
O=C(O)C[C@H](NC(=O)[C@@H]1CCCN2C(=O)CC[C@H](NC(=O)OCc3ccccc3)C(=O)N12)C(=O)COc1cc(C(F)(F)F)nn1-c1ccccc1	> 10000 M⁻¹ s⁻¹
O=C(O)C[C@H](NC(=O)[C@@H]1CCCN2C(=O)CC[C@H](NC(=O)c3ccc(CN4CCOCC4)cc3)C(=O)N12)C(=O)COC(=O)c1c(Cl)cccc1Cl	> 10000 M⁻¹ s⁻¹
